protocol summary: Kinetic solubility assay (nephelometry)
Assay type: physicochemical
experimental context: aqueous buffer, kinetic from dmso stock; saline phosphate buffer pH 7.25, 1% DMSO, 25 °C, ± SD; read-out: kinetic solubility Skin
reported endpoint: solubility kinetic at 10 s (µM)
// return numeric value only (unit: µM, not printed)

Challenge: Given the compound O=C(C1=C(O)C(=O)N(CCc2ccc(O)cc2)C1c1ccc(F)cc1)c1ccccc1 (racemic) , write its reported solubility kinetic at 10 s.
Response given: 442

* * *

study target: CCR2 (Homo sapiens, UniProt P41597)
Construct: host or cells: HEK293T, transient
Sequence (P41597 1-360 isoform P41597-2): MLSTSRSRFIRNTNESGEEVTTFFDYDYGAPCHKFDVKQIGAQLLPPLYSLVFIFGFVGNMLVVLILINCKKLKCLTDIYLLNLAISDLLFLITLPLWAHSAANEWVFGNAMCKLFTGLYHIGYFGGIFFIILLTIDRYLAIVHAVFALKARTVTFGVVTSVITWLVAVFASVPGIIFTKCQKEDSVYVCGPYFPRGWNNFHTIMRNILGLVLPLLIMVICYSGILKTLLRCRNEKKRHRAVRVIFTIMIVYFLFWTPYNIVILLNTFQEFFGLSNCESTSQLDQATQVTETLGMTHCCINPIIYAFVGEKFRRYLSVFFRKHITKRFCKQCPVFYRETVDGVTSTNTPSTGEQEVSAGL
protocol summary: Membrane-based NanoBRET saturation binding assay, CCR2_GSSG_Nluc membranes
Catalogue of Kd readings, one per entry.
// return numeric value only (unit: µM, not printed)

molecule: CN(C)c1ccc2c(-c3cc(C(=O)NCCOCCOCc4cn(CCCC(=O)C5=C(O)C(=O)N(c6ccc(Br)cc6F)C5C5CCCCC5)nn4)ccc3C(=O)[O-])c3ccc(=[N+](C)C)cc-3oc2c1 (centres unmarked)
observed measurement: 1.69

Consider the additional molecule presented here.
Challenge: Given the molecule CN(C)c1ccc2c(-c3cc(C(=O)NCCOCCOCc4cn(CCCC(=O)C5=C(O)C(=O)N(c6ccc(Cl)cc6F)C5C5CCCCC5)nn4)ccc3C(=O)[O-])c3ccc(=[N+](C)C)cc-3oc2c1 (centres unmarked) , write its reported Kd.
Response given: 1.98

These measurements were taken from paper PMC11249626.
